tested on: Herpes simplex virus, type I (HSV-1); experiment: microbe, parasite or virus in culture; assay type: cell-based; settings: Human alphaherpesvirus 1, in Primates; read-out: antiviral activity, HSV-1, ++ scale
The entries below come with measured zone of inhibition at 100 µg/disc values attached.

# count of solved cases: 2
| Compound | zone of inhibition at 100 µg/disc |
| --- | --- |
| Nc1ncc(C2c3nc(N)[nH]c3CC(CNC(=O)c3cc(Br)c(Br)[nH]3)C2CNC(=O)c2cc(Br)c[nH]2)[nH]1 (stereo not drawn) [Compound 5a, Bromoageliferin Acetate] | 11 to 15 mm |
| Nc1ncc(C2c3nc(N)[nH]c3CC(CNC(=O)c3cc(Br)c[nH]3)C2CNC(=O)c2cc(Br)c[nH]2)[nH]1 (stereo not drawn) [Compound 4a, Ageliferin Acetate] | 11 to 15 mm |

Next compound, please.
Name the reported zone of inhibition at 100 µg/disc value associated with the compound Nc1ncc([C@@H]2[C@@H](CNC(=O)c3ccc[nH]3)[C@H](CNC(=O)c3cc(Br)c[nH]3)[C@H]2c2cnc(N)[nH]2)[nH]1 (relative stereo) [Compound 1a, Debromosceptrin Acetate]
11 to 15 mm

====

test system: Herpes simplex virus, type I (HSV-1); experiment: microbe, parasite or virus in culture; assay type: cell-based; details: Human alphaherpesvirus 1, in Primates; read-out: antiviral activity, HSV-1, zone diameter
# zone of inhibition at 200 µg/disc per record follows
Could you give me the number in mm? Just the number is fine.

| Molecule | Experimental System | zone of inhibition at 200 µg/disc / mm |
| --- | --- | --- |
| Nc1ncc([C@@H]2[C@@H](CNC(=O)c3cc(Br)c(Br)[nH]3)[C@H](CNC(=O)c3cc(Br)c(Br)[nH]3)[C@H]2c2cnc(N)[nH]2)[nH]1 (relative stereo) [Compound 3a, Dibromosceptrin Acetate] | Herpes simplex virus, type I (HSV-1) | 14 |
| Nc1ncc(C2c3nc(N)[nH]c3CC(CNC(=O)c3cc(Br)c(Br)[nH]3)C2CNC(=O)c2cc(Br)c(Br)[nH]2)[nH]1 (stereo not shown) [Compound 6a, Dibromoageliferin Acetate] | Herpes simplex virus, type I (HSV-1) | 12 |
| Nc1ncc([C@@H]2[C@@H](CNC(=O)c3cc(Br)c[nH]3)[C@H](CNC(=O)c3cc(Br)c[nH]3)[C@H]2c2cnc(N)[nH]2)[nH]1 (relative stereo) [Compound 2a, Sceptrin Acetate] | Herpes simplex virus, type I (HSV-1) | 21 |
| Nc1ncc(C2c3nc(N)[nH]c3CC(CNC(=O)c3cc(Br)c[nH]3)C2CNC(=O)c2cc(Br)c[nH]2)[nH]1 (stereo not shown) [Compound 4a, Ageliferin Acetate] | Herpes simplex virus, type I (HSV-1) | 17 |
| Nc1ncc([C@@H]2[C@@H](CNC(=O)c3ccc[nH]3)[C@H](CNC(=O)c3cc(Br)c[nH]3)[C@H]2c2cnc(N)[nH]2)[nH]1 (relative stereo) [Compound 1a, Debromosceptrin Acetate] | Herpes simplex virus, type I (HSV-1) | 18 |

Fill in the blank: the reported zone of inhibition at 200 µg/disc of NC1=NC(=O)C(C2C(CNC(=O)c3cc(Br)c[nH]3)C(CNC(=O)c3cc(Br)c[nH]3)C2c2cnc(N)[nH]2)N1 (stereo not shown) [Compound 8a, Oxysceptrin Acetate] is ____.
12

Recorded zone of inhibition at 200 µg/disc of Nc1ncc(C2c3nc(N)[nH]c3CC(CNC(=O)c3cc(Br)c(Br)[nH]3)C2CNC(=O)c2cc(Br)c[nH]2)[nH]1 (stereo not shown) [Compound 5a, Bromoageliferin Acetate] , please.
13
